Test system: Human Breast Cancer Cell Line (MCF-7)
assay_notes: Tumor cell proliferation assay (MTT), MCF-7
Type: cell-based
test_conditions: MCF7, concentration of 10^−5 mol/L, preliminary screening, 72 hours, read-out: Inhibition rate % MCF-7
Reported inhibition at 10 µM values are given for each entry in this list.

compound: Cc1[nH]c2c(c1C(=O)NCC(O)CN1CCCCC1)CCC/C2=C1/C(=O)Nc2ccc(F)cc21 (centres unmarked) [I-74]
inhibition at 10 µM: 70.7%

compound: CCN(CC)CCNC(=O)c1c(C)[nH]c2c1CCC/C2=C1/C(=O)Nc2ccccc21 [I-5]
inhibition at 10 µM: 50.5%

compound: Cc1[nH]c2c(c1C(=O)NCCO)CCC/C2=C1/C(=O)Nc2ccccc21 [I-8]
inhibition at 10 µM: 25.2%

compound: CCN(CC)CCNC(=O)c1c(C)[nH]c2c1CCC/C2=C1/C(=O)Nc2ccc(F)cc21 [I-2]
inhibition at 10 µM: 55.4%

compound: Cc1[nH]c2c(c1C(=O)NCC(O)CN1CCCCC1)CCC/C2=C1/C(=O)Nc2ccccc21 (centres unmarked) [I-73]
inhibition at 10 µM: 43.4%

* * *

Test system: Human Hepatocellular Carcinoma Cell Line (HEPG2)
assay_notes: Tumor cell proliferation assay (MTT), HEPG2
Format: cell-based
test_conditions: secondary screening, 48 hours
quantity_name: IC50 (µM)

compound: Cc1[nH]c2c(c1C(=O)NCC(O)CN1CCCCC1)CCC/C2=C1/C(=O)Nc2ccc(Cl)cc21 (centres unmarked)
quantity_name: IC50
reported_value: 3.59
//
compound: CCN(CC)CCNC(=O)c1c(C)[nH]c2c1CCC/C2=C1/C(=O)Nc2ccccc21
quantity_name: IC50
reported_value: 7.73
//
compound: CCN(CC)CC(O)CNC(=O)c1c(C)[nH]c2c1CCC/C2=C1/C(=O)Nc2ccc(Cl)cc21 (centres unmarked)
quantity_name: IC50
reported_value: 2.8
//
compound: CCN(CC)CCNC(=O)c1c(C)[nH]c2c1CCC/C2=C1/C(=O)Nc2ccc(Cl)cc21
quantity_name: IC50
reported_value: 3.14
//
compound: Cc1[nH]c2c(c1C(=O)NCC(O)CN1CCCCC1)CCC/C2=C1/C(=O)Nc2ccc(F)cc21 (centres unmarked)
quantity_name: IC50
reported_value: 7.22
//
compound: CCN(CC)CC(O)CNC(=O)c1c(C)[nH]c2c1CCC/C2=C1/C(=O)Nc2ccccc21 (centres unmarked)
quantity_name: IC50
reported_value: 3.15
//
compound: Cc1[nH]c2c(c1C(=O)NCC(O)CN1CCCCC1)CCC/C2=C1/C(=O)Nc2ccccc21 (centres unmarked)
quantity_name: IC50
reported_value: 7.36
//
compound: CCN(CC)CCNC(=O)c1c(C)[nH]c2c1CCC/C2=C1/C(=O)Nc2ccc(F)cc21
quantity_name: IC50
reported_value: 7.27

* * *

Test system: Human Small Cell Lung Cancer Cell Line (NCI-H446)
assay_notes: Tumor cell proliferation assay (MTT), NCI-H446
Format: cell-based
test_conditions: secondary screening, 48 hours
Exam item: assign satisfied to entries whose IC50 is below 6 µM and not satisfied to entries at or above 6 µM. Note that a value of exactly 6 µM receives not satisfied.

compound: Cc1[nH]c2c(c1C(=O)NCC(O)CN1CCN(C)CC1)CCC/C2=C1/C(=O)Nc2ccc(F)cc21 (centres unmarked)
label: not satisfied
--
compound: CCN(CC)CCNC(=O)c1c(C)[nH]c2c1CCC/C2=C1/C(=O)Nc2ccc(Cl)cc21
label: not satisfied
--
compound: CCN(CC)CC(O)CNC(=O)c1c(C)[nH]c2c1CCC/C2=C1/C(=O)Nc2ccccc21 (centres unmarked)
label: satisfied
--
compound: Cc1[nH]c2c(c1C(=O)NCC(O)CN1CCOCC1)CCC/C2=C1/C(=O)Nc2ccccc21 (centres unmarked)
label: not satisfied
--
compound: Cc1ccc2c(c1)/C(=C1\CCCc3c1[nH]c(C)c3C(=O)NCC(O)CN(C)C1CCCCC1)C(=O)N2 (centres unmarked)
label: satisfied
--
compound: CCN(CC)CC(O)CNC(=O)c1c(C)[nH]c2c1CCC/C2=C1/C(=O)Nc2ccc(Cl)cc21 (centres unmarked)
label: satisfied
--
compound: Cc1[nH]c2c(c1C(=O)NCC(O)CN1CCCCC1)CCC/C2=C1/C(=O)Nc2ccc(Cl)cc21 (centres unmarked)
label: not satisfied
